target: Nucleotide-binding oligomerization domain-containing protein 2 (Homo sapiens, UniProt Q9HC29); assay: Antagonist activity at human NOD2 expressed in HEK-Blue cells assessed as inhibition of MDP-stimulated cell activation at 5 uM preincubated for 3 hrs followed by MDP addition measured after 20 hrs by SEAP reporter gene assay; assay type: cell-based
Sequence (Q9HC29 whole entry, the tested form may be a part): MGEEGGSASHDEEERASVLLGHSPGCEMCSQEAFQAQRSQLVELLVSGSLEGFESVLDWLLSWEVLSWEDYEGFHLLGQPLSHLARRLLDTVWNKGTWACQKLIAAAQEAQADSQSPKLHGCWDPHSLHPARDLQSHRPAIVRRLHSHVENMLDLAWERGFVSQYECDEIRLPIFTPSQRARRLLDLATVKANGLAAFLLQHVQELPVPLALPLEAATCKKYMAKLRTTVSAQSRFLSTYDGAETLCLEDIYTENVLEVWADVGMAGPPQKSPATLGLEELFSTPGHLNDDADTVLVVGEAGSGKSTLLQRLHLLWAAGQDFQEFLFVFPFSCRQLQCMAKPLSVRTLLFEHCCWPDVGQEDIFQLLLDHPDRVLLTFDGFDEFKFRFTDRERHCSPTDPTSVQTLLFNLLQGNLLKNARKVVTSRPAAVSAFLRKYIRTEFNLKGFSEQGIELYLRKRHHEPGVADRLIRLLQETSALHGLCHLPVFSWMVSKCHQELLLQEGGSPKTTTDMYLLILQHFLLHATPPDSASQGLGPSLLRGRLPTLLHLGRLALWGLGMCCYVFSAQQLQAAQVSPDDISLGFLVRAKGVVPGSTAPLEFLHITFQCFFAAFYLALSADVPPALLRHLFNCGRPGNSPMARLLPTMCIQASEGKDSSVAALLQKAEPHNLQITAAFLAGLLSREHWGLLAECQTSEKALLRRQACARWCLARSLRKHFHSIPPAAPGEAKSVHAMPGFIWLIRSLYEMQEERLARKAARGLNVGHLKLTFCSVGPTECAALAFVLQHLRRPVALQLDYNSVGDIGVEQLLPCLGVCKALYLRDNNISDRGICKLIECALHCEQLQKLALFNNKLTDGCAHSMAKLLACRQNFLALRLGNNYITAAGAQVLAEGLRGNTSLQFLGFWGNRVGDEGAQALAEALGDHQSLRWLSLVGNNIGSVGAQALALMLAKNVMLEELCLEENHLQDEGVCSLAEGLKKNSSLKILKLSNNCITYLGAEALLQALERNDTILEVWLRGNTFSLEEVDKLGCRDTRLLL
measure: inhibition
I'd appreciate it if you included the unit after the number.

Worked set:
COC(=O)CC[C@H]1NC(=O)c2cc(Oc3cccc(N(C)C)c3)c(NC(=O)COCc3ccc(Cl)cc3Cl)cc2NC1=O | 30.9%
COC(=O)CC[C@H]1NC(=O)c2cc(Oc3ccccc3)c(NC(=O)COCc3ccc(C(F)(F)F)cc3)cc2NC1=O | 29.8%
COC(=O)CC[C@H]1NC(=O)c2cc(Oc3cccc(N(C)C)c3)c(NC(=O)COCc3ccc(Cl)c(Cl)c3)cc2NC1=O | 45.5%

For the molecule shown here, `COC(=O)CC[C@H]1NC(=O)c2cc(Oc3cccc(N(C)C)c3)c(NC(=O)COCc3ccc(C#N)cc3)cc2NC1=O` , give the reported inhibition.
72.8%

For the molecule shown here, `CCCNC(=O)CC[C@H]1NC(=O)c2cc(Oc3cccc(N(C)C)c3)c(NC(=O)COCc3ccc(Cl)cc3)cc2NC1=O` , give the reported inhibition.
37.6%

For the molecule shown here, `COC(=O)CC[C@H]1NC(=O)c2cc(Oc3cccc(N(C)C)c3)c(NC(=O)COCc3ccsc3)cc2NC1=O` , give the reported inhibition.
38.6%

For the molecule shown here, `COC(=O)CC[C@H]1NC(=O)c2cc(Oc3cccc(N(C)C)c3)c(NC(=O)COCc3ccc(Cl)cc3)cc2NC1=O` , give the reported inhibition.
86.3%

For the molecule shown here, `COC(=O)CC[C@H]1NC(=O)c2cc(Oc3cc(Cl)cc(N(C)C)c3)c(NC(=O)COCc3ccccc3)cc2NC1=O` , give the reported inhibition.
54.9%

For the molecule shown here, `COC(=O)CC[C@H]1NC(=O)c2cc(Oc3cc(N(C)C)c(Cl)c(Cl)c3Cl)c(NC(=O)COCc3ccccc3)cc2NC1=O` , give the reported inhibition.
11.1%

For the molecule shown here, `COC(=O)CC[C@H]1NC(=O)c2cc(Oc3cc(N(C)C)cc(Cl)c3Cl)c(NC(=O)COCc3ccccc3)cc2NC1=O` , give the reported inhibition.
9.23%

For the molecule shown here, `CN(C)c1cccc(Oc2cc3c(cc2NC(=O)COCc2ccc(Cl)cc2)NC(=O)[C@@H](CCC(=O)N2CCCCC2)NC3=O)c1` , give the reported inhibition.
91.2%

For the molecule shown here, `CN(C)C(=O)CC[C@H]1NC(=O)c2cc(Oc3cccc(N(C)C)c3)c(NC(=O)COCc3ccccc3)cc2NC1=O` , give the reported inhibition.
31%
